# System: Hep-3B cells
# assay procedure: Cellular assay: erythropoietin secretion in Hep-3B cells
# Assay type: cell-based, human
# condition: Homo sapiens, Hep3B, 100 μM compound, 24 hours, percent of EPO secretion relative to assay control compound 7-[(4-Chloro-phenyl)-(5-methyl-isoxazol-3-ylamino)-methyl]-quinolin-8-ol, read-out: Cellular % EPO Stimulation
Note to self: Emax at 100 µM under 50% means yes (1), ties and anything higher get no (0).

[[record]]
molecule = "O=C(O)c1cnn(-c2nc3cc(F)c(Oc4ccc5c(c4)CCC5)cc3c(=O)[nH]2)c1"
assigned_category = "no (0)"

[[record]]
molecule = "O=C(O)c1cnn(-c2nc3cc(Cl)c(N4CCc5ccccc5C4)cc3c(=O)[nH]2)c1"
assigned_category = "no (0)"

[[record]]
molecule = "O=C(O)c1cnn(-c2nc3cc(Cc4ccccc4)ccc3c(=O)[nH]2)c1"
assigned_category = "yes (1)"

[[record]]
molecule = "CCc1ccc2nc(-n3cc(C(=O)O)cn3)[nH]c(=O)c2c1"
assigned_category = "no (0)"

[[record]]
molecule = "O=C(O)c1cnn(-c2nc3c(Sc4ccccc4)cccc3c(=O)[nH]2)c1"
assigned_category = "yes (1)"

[[record]]
molecule = "Cc1cccc(Oc2ccc3nc(-n4cc(C(=O)O)cn4)[nH]c(=O)c3c2)c1"
assigned_category = "yes (1)"

[[record]]
molecule = "O=C(O)c1cnn(-c2nc3cc(S(=O)(=O)c4ccc(Cl)cc4)ccc3c(=O)[nH]2)c1"
assigned_category = "yes (1)"

[[record]]
molecule = "O=C(O)c1cnn(-c2nc3cccc(Cl)c3c(=O)[nH]2)c1"
assigned_category = "yes (1)"

[[record]]
molecule = "O=C(O)c1cnn(-c2nc3cc(F)c(Br)cc3c(=O)[nH]2)c1"
assigned_category = "yes (1)"


* * *

# test system: human PHD2 (PHD2181-417) (Homo sapiens)
# Construct: Smt (SUMO) tag (cleaved yes); made in house; host or cells: E. coli BL21 (pBAD vector)
# Sequence (Q9GZT9 181-417): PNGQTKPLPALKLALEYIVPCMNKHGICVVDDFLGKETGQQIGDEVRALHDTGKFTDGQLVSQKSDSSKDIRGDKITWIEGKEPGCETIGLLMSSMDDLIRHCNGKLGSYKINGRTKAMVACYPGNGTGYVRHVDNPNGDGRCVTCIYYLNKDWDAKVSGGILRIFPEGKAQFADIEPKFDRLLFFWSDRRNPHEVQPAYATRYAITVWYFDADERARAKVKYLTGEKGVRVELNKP
# assay procedure: PHD enzymatic assay ([14C]-succinic acid production)
# Assay type: biochemical
# condition: PHD2181-417, HIF-1α peptide 10 μM, average of results; read-out: Enzyme pIC50 (converted)
# key: entry, value: log10(IC50)
property measured: log10(IC50) (log10 of the value in nM)

[[record]]
compound = "O=C(O)c1cnn(-c2nc3c(OC(F)(F)F)cccc3c(=O)[nH]2)c1"
measured = 2.90

[[record]]
compound = "Cc1cccc2c(=O)[nH]c(-n3cc(C(=O)O)cn3)nc12"
measured = 1.90

[[record]]
compound = "O=C(O)c1cnn(-c2nc3ccc(C(=O)N4CCCC4)cc3c(=O)[nH]2)c1"
measured = 1.50

[[record]]
compound = "Cc1cc2nc(-n3cc(C(=O)O)cn3)[nH]c(=O)c2cc1Oc1cc(Cl)ccc1Cl"
measured = 1.40

[[record]]
compound = "O=C(O)c1cnn(-c2nc3ccc(I)cc3c(=O)[nH]2)c1"
measured = 1.40

[[record]]
compound = "NC(=O)c1cccc(CNc2ccc3nc(-n4cc(C(=O)O)cn4)[nH]c(=O)c3c2)c1"
measured = 1.40

[[record]]
compound = "O=C(O)c1cnn(-c2nc3c4c(ccc3c(=O)[nH]2)CCCC4)c1"
measured = 2.40

[[record]]
compound = "O=C(O)c1cnn(-c2nc3ccc(Oc4c(Cl)cccc4Cl)cc3c(=O)[nH]2)c1"
measured = 1.30

[[record]]
compound = "O=C(O)c1cnn(-c2nc3ccc(-c4ccc5c(c4)OCO5)cc3c(=O)[nH]2)c1"
measured = 1.40

[[record]]
compound = "O=C(O)c1cnn(-c2nc3cc(-c4ccc(Cl)cc4)ccc3c(=O)[nH]2)c1"
measured = 1.80

[[record]]
compound = "O=C(O)c1cnn(-c2nc3cc4c(cc3c(=O)[nH]2)OCCCO4)c1"
measured = 1.70

[[record]]
compound = "Cc1cc(C)cc(Oc2ccc3nc(-n4cc(C(=O)O)cn4)[nH]c(=O)c3c2)c1"
measured = 1.30

[[record]]
compound = "Cc1ccc(Oc2cc3c(=O)[nH]c(-n4cc(C(=O)O)cn4)nc3cc2C)cc1C"
measured = 1.30

[[record]]
compound = "CC(C)(C)c1ccc2c(=O)[nH]c(-n3cc(C(=O)O)cn3)nc2c1"
measured = 2.60

[[record]]
compound = "CCNc1ccc2nc(-n3cc(C(=O)O)cn3)[nH]c(=O)c2c1"
measured = 1.40

[[record]]
compound = "CC(C)Oc1ccc2c(=O)[nH]c(-n3cc(C(=O)O)cn3)nc2c1"
measured = 2.60

[[record]]
compound = "Cc1ccc(CNc2ccc3nc(-n4cc(C(=O)O)cn4)[nH]c(=O)c3c2)cc1"
measured = 1.20

[[record]]
compound = "O=C(O)c1cnn(-c2nc3ccc(NCc4ccccc4Cl)cc3c(=O)[nH]2)c1"
measured = 1.30

[[record]]
compound = "COc1ccc2nc(-n3cc(C(=O)O)cn3)[nH]c(=O)c2c1"
measured = 1.40

[[record]]
compound = "O=C(O)c1cnn(-c2nc3cc(Cl)c([S+]([O-])C(F)(F)F)cc3c(=O)[nH]2)c1 (centres unmarked)"
measured = 1.60

[[record]]
compound = "O=C(O)c1cnn(-c2nc3ccc(-c4ccccc4)cc3c(=O)[nH]2)c1"
measured = 1.50

[[record]]
compound = "O=C(O)c1cnn(-c2nc3ccc(Cc4ccccc4)cc3c(=O)[nH]2)c1"
measured = 1.50

[[record]]
compound = "O=C(O)c1cnn(-c2nc3c(Oc4ccccc4)cccc3c(=O)[nH]2)c1"
measured = 2.20

[[record]]
compound = "O=C(O)c1cnn(-c2nc3ccc(-c4cccc(F)c4)cc3c(=O)[nH]2)c1"
measured = 1.60

[[record]]
compound = "O=C(O)c1cnn(-c2nc3ccc(COc4ccccc4)cc3c(=O)[nH]2)c1"
measured = 1.50

[[record]]
compound = "O=C(O)c1cnn(-c2nc3ccc(-c4cccc(Cl)c4)cc3c(=O)[nH]2)c1"
measured = 1.50


* * *

# Test system: Hep-3B cells
# assay procedure: Cellular assay: erythropoietin secretion in Hep-3B cells
# Assay type: cell-based, human
# condition: Homo sapiens, Hep3B, 100 μM compound, 24 hours, percent of EPO secretion relative to assay control compound 7-[(4-Chloro-phenyl)-(5-methyl-isoxazol-3-ylamino)-methyl]-quinolin-8-ol, read-out: Cellular % EPO Stimulation
Note to self: Emax at 100 µM under 40% means Satisfied, ties and anything higher get Not satisfied.

[[record]]
molecule = "O=C(O)c1cnn(-c2nc3ccc(-c4ccc5c(c4)OCO5)cc3c(=O)[nH]2)c1"
assigned_category = "Not satisfied"

[[record]]
molecule = "O=C(Nc1ccccc1)Nc1ccc2nc(-n3cc(C(=O)O)cn3)[nH]c(=O)c2c1"
assigned_category = "Satisfied"

[[record]]
molecule = "O=C(O)c1cnn(-c2nc3ccc(Oc4cccc(Cl)c4Cl)cc3c(=O)[nH]2)c1"
assigned_category = "Not satisfied"

[[record]]
molecule = "O=C(O)c1cnn(-c2nc3ccc(Oc4cccc5c4CCCC5)cc3c(=O)[nH]2)c1"
assigned_category = "Not satisfied"

[[record]]
molecule = "O=C(O)c1cnn(-c2nc3ccc(-c4cccc(OC(F)(F)F)c4)cc3c(=O)[nH]2)c1"
assigned_category = "Not satisfied"

[[record]]
molecule = "O=C(O)c1cnn(-c2nc3ccc(Oc4cc(F)cc(C(F)(F)F)c4)cc3c(=O)[nH]2)c1"
assigned_category = "Satisfied"

[[record]]
molecule = "O=C(O)c1cnn(-c2nc3cc(-c4ccc(Cl)cc4)ccc3c(=O)[nH]2)c1"
assigned_category = "Satisfied"

[[record]]
molecule = "O=C(O)c1cnn(-c2nc3ccc(Oc4cccc(Cl)c4)cc3c(=O)[nH]2)c1"
assigned_category = "Satisfied"


* * *

# Test system: Hep-3B cells
# assay procedure: Cellular assay: erythropoietin secretion in Hep-3B cells
# Type: cell-based, human
# condition: Homo sapiens, Hep3B, 100 μM compound, 24 hours, percent of EPO secretion relative to assay control compound 7-[(4-Chloro-phenyl)-(5-methyl-isoxazol-3-ylamino)-methyl]-quinolin-8-ol, read-out: Cellular % EPO Stimulation
property measured: Emax at 100 µM

[[record]]
compound = "O=C(O)c1cnn(-c2nc3cc(Cl)c(Oc4cccc5c4CCCC5)cc3c(=O)[nH]2)c1 [Example 55]"
measured = "25%"

[[record]]
compound = "O=C(O)c1cnn(-c2nc3cc(Cl)c([S+]([O-])C(F)(F)F)cc3c(=O)[nH]2)c1 (stereo not drawn) [Example 160]"
measured = "13%"

[[record]]
compound = "O=C(O)c1cnn(-c2nc3cc(C(F)(F)F)ccc3c(=O)[nH]2)c1 [Example 2]"
measured = "21%"

[[record]]
compound = "CC(C)(C)c1ccc(S(=O)(=O)c2cc3c(=O)[nH]c(-n4cc(C(=O)O)cn4)nc3cc2Cl)cc1 [Example 72]"
measured = "22%"

[[record]]
compound = "O=C(O)c1cnn(-c2nc3c(OC(F)(F)F)cccc3c(=O)[nH]2)c1 [Example 117]"
measured = "12%"

[[record]]
compound = "CS(=O)(=O)c1ccc2nc(-n3cc(C(=O)O)cn3)[nH]c(=O)c2c1 [Example 157]"
measured = "17%"

[[record]]
compound = "O=C(O)c1cnn(-c2nc3ccc(-c4ccccc4)cc3c(=O)[nH]2)c1 [Example 106]"
measured = "129%"

[[record]]
compound = "O=C(O)c1cnn(-c2nc3cc(S(=O)(=O)c4ccccc4Cl)ccc3c(=O)[nH]2)c1 [Example 83]"
measured = "11%"

[[record]]
compound = "O=C(O)c1cnn(-c2nc3cc(Cl)c(Oc4ccc(Cl)cc4)cc3c(=O)[nH]2)c1 [Example 48]"
measured = "51%"


The measurements presented in this section are drawn from patent US8937078B2.
